Biological target: T1, Avi-Tag Fc with human IL-2R beta and IL-2R gamma attached (Acrobiosystems ACRB-ILG-H82F3-25UG) (human, UniProt P14784 27-239; P31785 23-262)
T1 construct: bought heterodimer; also called CD122 CD132; CD122/CD132 complex
T1 sequence (looked up) 1: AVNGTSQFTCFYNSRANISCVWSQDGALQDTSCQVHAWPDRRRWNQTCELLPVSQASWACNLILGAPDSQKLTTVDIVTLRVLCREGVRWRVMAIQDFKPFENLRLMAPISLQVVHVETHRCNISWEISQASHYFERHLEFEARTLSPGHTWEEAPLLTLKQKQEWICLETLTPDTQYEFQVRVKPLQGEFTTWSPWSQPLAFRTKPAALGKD
T1 sequence (looked up) 2: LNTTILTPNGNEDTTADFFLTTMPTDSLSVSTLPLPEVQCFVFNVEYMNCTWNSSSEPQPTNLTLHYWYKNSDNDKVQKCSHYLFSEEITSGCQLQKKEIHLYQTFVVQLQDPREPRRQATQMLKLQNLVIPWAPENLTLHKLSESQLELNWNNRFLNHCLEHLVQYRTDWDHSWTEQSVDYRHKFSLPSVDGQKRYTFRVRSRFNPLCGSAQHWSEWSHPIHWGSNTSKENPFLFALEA
Test: BLI (Octet), receptor on SAX2 sensor, IL-2 as analyte
Bridges are numbered along the chain shown (N, C = ends). Primed or numbered codes have the meaning given here. [ ]: non-standard residue; d: D form. Ygp″ = O-(PEG8-amino)-tyrosine (O-(8x polyethylene glycol-amino)-tyrosine); Yn3″ = O-(PEG9-azido)-tyrosine (O-(9x polyethylene glycol-azido)-tyrosine); Ygp = O-(8x polyethylene glycol-amino)-tyrosine; Yn3 = O-(9x polyethylene glycol-azido)-tyrosine; Ygp(3) = O-(PEG8-amino)-tyrosine; Yn3(3) = O-(PEG9-azido)-tyrosine; hSer = N[C@@H](CCO)C(=O)O; Nle = CCCC[C@H](N)C(=O)O
Cut-off 0.002 s⁻¹ on koff, inclusive. At or above means Satisfied; below means Not satisfied.

Illustrative cases are given below, each with its answer.
{"binder": "CMP-168 (ligand, disulfide 58-105 (inferred); bridge 9-23; not fully specified (residue 23, bridges)) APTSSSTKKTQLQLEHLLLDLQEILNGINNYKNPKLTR[Nle]L[hSer][Yn3]KF[Ygp][Nle]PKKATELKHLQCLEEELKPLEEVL[hSer]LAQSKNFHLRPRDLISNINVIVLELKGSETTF[hSer]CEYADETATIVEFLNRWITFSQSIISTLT", "assigned-class": "Satisfied"}
{"binder": "CMP-145 (ligand, disulfide 58-105; not fully specified (residue 23); also: branched 27x PEG chains on the attached KKPLGLAG peptide, places not given here) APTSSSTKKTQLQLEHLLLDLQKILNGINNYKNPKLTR[Nle]L[hSer][Yn3]KF[Ygp][Nle]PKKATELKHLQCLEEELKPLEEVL[hSer]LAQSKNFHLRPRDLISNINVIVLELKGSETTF[hSer]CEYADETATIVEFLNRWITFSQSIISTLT", "assigned-class": "Not satisfied"}

In: Does the reported koff for CMP-313 (ligand, disulfide 58-105; also: branched 27x PEG chains on the attached peptide) APTSSSTKKTQLQLEHLLLDLQK(KKRGRRVANLVG)ILNGINNYKNPKLTR[Nle]L[hSer][Yn3(3)]KF[Ygp(3)][Nle]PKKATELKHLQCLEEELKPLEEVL[hSer]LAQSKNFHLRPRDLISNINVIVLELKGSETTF[hSer]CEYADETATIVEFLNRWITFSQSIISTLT fall at or above the 0.002 s⁻¹ mark?
Out: Not satisfied

In: Does the reported koff for CMP-136 (ligand, disulfide 58-105; bridge N-29; not fully specified (residue 29, bridges); also: cleavable peptide sequence not given here) APTSSSTKKTQLQLEHLLLDLQ[Nle]ILNGIENYKNPKLTR[Nle]L[hSer][Yn3″]KF[Ygp″][Nle]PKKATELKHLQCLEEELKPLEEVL[hSer]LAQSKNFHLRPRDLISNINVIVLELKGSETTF[hSer]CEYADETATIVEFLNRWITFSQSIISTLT fall at or above the 0.002 s⁻¹ mark?
Out: Satisfied

In: Does the reported koff for CMP-319 (ligand, lactam N-33; not fully specified (bridges)) RGRRVANLVGAPTSSSTKKTQLQLEHLLLDLQEILNGINNYKNPKLTR[Nle]L[hSer][Yn3(3)]KF[Ygp(3)][Nle]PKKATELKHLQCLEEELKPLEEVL[hSer]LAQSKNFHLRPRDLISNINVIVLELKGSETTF[hSer]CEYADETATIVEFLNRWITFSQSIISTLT fall at or above the 0.002 s⁻¹ mark?
Out: Not satisfied
